Test system: Fibroblast
Assay: Multiplex assay against human fibroblast
Type: toxicity, cell-based
Settings: 24 h, 1 µM, compound concentration 1 uM, replicate 2
I'd appreciate it if you could supply Population Membrane Permeable-Phenotype (%) values for the items below.
Numbers only, in %.

Known Population Membrane Permeable-Phenotype (%) results, listed for orientation:
>  <Compound>
Cc1cnc(-c2cc(N3CCN(C(=O)CCS(C)(=O)=O)CC3)ncc2Cl)c(C)c1

>  <Val>
3

$$$$
>  <Compound>
NCCc1cn(S(=O)(=O)c2c(Cl)nc3sccn23)c2ccccc12.O=C(O)C(=O)O

>  <Val>
18

$$$$
>  <Compound>
C[C@H](N)COC(=O)[C@@H](CCCCN)NC(=O)Cc1c(-c2ccc3ccccc3c2)[nH]c2c1ccc1ccccc12

>  <Val>
3

$$$$

For each entry beneath this line, provide reported Population Membrane Permeable-Phenotype (%).
1. Cc1onc(-c2ccccc2Cl)c1C(=O)N(C)c1ccc(Cl)cc1
2. CC[C@@H](C)Nc1nc(C)nc2c(-c3ccc(OC)nc3C)c(C)nn12 [PEXACERFONT]
3. O=C1[C@H](Cc2ccc(O)cc2)N2C(=O)CCN(C(=O)NCc3ccccc3)[C@H]2CN1Cc1cccc2ccccc12
4. N#Cc1cc(F)cc(-c2nc(-c3ccc(F)cn3)no2)c1
5. COC[C@@H](c1ccc(C(F)(F)F)cc1)N1CCN(C2(C)CCN(C(=O)c3c(C)ncnc3C)CC2)C[C@@H]1C.O=C(O)/C=C\C(=O)O [VICRIVIROC MALEATE]
6. CCCOc1ccc2[nH]cc(C3=CCNCC3)c2n1.Cl

**A:**
[8, 20, 7, 12, 8, 5]

For each entry beneath this line, provide reported Population Membrane Permeable-Phenotype (%).
1. CCCCCC(O)/C=C/[C@H]1C(=O)CC(O)C1C/C=C\CCCC(=O)O (some centres not stated)
2. CN1CCN(c2cc(-c3ccccc3)nc(N)n2)CC1
3. CCc1cc2cc(NS(=O)(=O)c3ccc(C#N)cc3)ccc2n(CC)c1=O

**A:**
1. 4
2. 8
3. 9
